For each entry below, report its IC50 value.
target: EP4 (Homo sapiens (Human)); experiment: hEP4 cAMP assay (BT549 breast cancer cells, HTRF cAMP); type: cell-based; settings: antagonistic activity, PGE2 6 nM
Sequence (P35408 whole entry): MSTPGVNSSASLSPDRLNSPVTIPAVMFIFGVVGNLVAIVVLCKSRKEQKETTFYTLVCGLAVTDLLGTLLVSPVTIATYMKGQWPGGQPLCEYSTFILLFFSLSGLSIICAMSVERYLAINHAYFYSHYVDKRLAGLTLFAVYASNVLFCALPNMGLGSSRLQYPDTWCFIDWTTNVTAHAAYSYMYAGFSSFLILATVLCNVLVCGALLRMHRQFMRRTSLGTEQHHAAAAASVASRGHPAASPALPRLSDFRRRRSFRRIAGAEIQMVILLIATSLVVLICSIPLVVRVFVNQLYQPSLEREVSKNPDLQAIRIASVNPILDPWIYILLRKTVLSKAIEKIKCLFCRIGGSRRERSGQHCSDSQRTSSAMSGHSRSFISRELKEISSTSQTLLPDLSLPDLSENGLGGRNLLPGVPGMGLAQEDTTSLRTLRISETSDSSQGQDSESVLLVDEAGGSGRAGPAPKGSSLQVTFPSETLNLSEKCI
Just so you know, I need the unit written after the number.

Query: Fill blank: measured IC50 of the compound CCOc1cc(-c2cc(NCCc3cc4cccnc4cc3F)ncn2)sc1C(=O)O [Ex 98] is ____.
Result: 0.064 µM

Query: Then CSc1cc(-c2cc(NCCc3cc4ccsc4cc3C)ncn2)ccc1CC(=O)O [Ex 305] ?
Result: 0.653 µM

Query: Follow-up entry: CCOc1cc(-c2cc(NCCc3cc4c(cc3OC)NCCC4)ncn2)sc1C(=O)O [Ex 173]
Result: 0.183 µM

Query: Let us now turn to CSc1cc(-c2cc(NCCc3ccc4sccc4c3)ncn2)ccc1C(=O)O [Ex 132]
Result: 0.107 µM

Query: For CCOc1cc(-c2cc(NCCc3cc4c(cc3OC)OCCO4)ncn2)ccc1OCC(=O)O [Ex 120] then?
Result: 0.092 µM

Query: Now this one: CCOc1cc(-c2cc(NCCc3ccc4cccc(F)c4c3)ncn2)sc1C(=O)O [Ex 66]
Result: 0.035 µM

Query: How about this compound: Cc1cc2c(cc1CCNc1cc(-c3ccc(C(=O)O)c(OC4CCC4)c3)ncn1)OC=CO2 [Ex 288]
Result: 0.523 µM

Query: And for O=C(O)c1ccc(-c2cc(NCCc3ccc4[nH]ccc4c3)ncn2)cc1OC1CCC1 [Ex 322] ?
Result: 0.814 µM

Query: How about this compound: CSc1cc(-c2cc(NCCc3ccc4ccsc4c3)ncn2)ccc1C(=O)O [Ex 176]
Result: 0.185 µM

Query: Now try Cc1c(CCNc2cc(-c3cc(OCCO)c(C(=O)O)s3)ncn2)ccc2ccccc12 [Ex 48] .
Result: 0.022 µM

Query: Consider next the compound COc1cc2c(cc1CCNc1cc(-c3ccc(C(=O)O)c(SC)c3)ncn1)OCCO2 [Ex 116] in the same way.
Result: 0.086 µM
